- MEASUREMENT DESCRIPTION: Effect on high fat diet-fed KK-Ay mouse model of obesity and diabetes assessed as water intake at 5 mg/kg, po (reference value: 21.2 +/- 4.17 ml/day)
- Type: ADME, organism-based
- MEASUREMENT CONDITIONS: in vivo
MEASURED QUANTITY: Activity
Write the quantity with the unit trailing the number.

Dear colleague, I am looking for the recorded Activity of the following molecule: CN(CCOc1ccc(CC2SC(=O)NC2=O)cc1)c1ccccn1 (stereo unspecified) 6.1 mL/day

* * *

- MEASUREMENT DESCRIPTION: Acute toxicity in po dosed Kunming mouse administered as single dose measured for 7 days
- Assay type: organism-based
- MEASUREMENT CONDITIONS: in vivo, time 7 day
MEASURED QUANTITY: LD50 at 168 h (mg/kg)
Give the number; mg/kg is assumed, so skip it.

Dear colleague, I am looking for the recorded LD50 at 168 h of the following compound: CCCC[C@@H]1[C@H]2CCCN3CCC[C@@H](CN1S(=O)(=O)c1ccc(C(F)(F)F)cc1)[C@@H]23 1000
